- Test system: K86415-001-R-J1-PDC complex spheroids, viability
- assay-name: Anticancer human tumor K86415-001-R-J1-PDC patient-derived lung adenocarcinoma cell line growth inhibition [RAS]; active means viability on the fitted dose curve at most 10% of control; inactive means the rest
- test-context: second compound 0.03 µM; first compound 0.316 µM
- From the text: RAS pathway inhibitors in Combinations in Complex Spheroids A high-throughput screen of multi-cell type tumor spheroids was designed to identify active combinations of RAS pathway inhibitors and targeted small molecules. Complex spheroids include a stromal component modeled by human endothelial cells (HUVEC) and fibroblasts modeled by human mesenchymal stem cells (MSCs). […] Compounds. […] If the clinical Cmax for an agent had not been determined, the highest concentration tested was 10 microM. […]
Classes used: active, inactive

compound	group-label
CC1(O)CCCC1n1c(=O)c(C(F)F)cc2cnc(NC3CCN(S(C)(=O)=O)CC3)nc21 (centres undefined) + CCn1c(-c2cccnc2C(C)OC)c2c3cc(ccc31)N1CCOC(CC(NC(=O)C(C(C)C)N(C)C(=O)C3(F)CCN(C(=O)C#CC(C)(C)N(C)C)CC3)C(=O)N3CCCC(N3)C(=O)OCC(C)(C)C2)C1	inactive
C=CC(=O)Nc1cc(Nc2nccc(-c3cn(C)c4ccccc34)n2)c(OC)cc1N(C)CCN(C)C + CCn1c(-c2cccnc2C(C)OC)c2c3cc(ccc31)N1CCOC(CC(NC(=O)C(C(C)C)N(C)C(=O)C3(F)CCN(C(=O)C#CC(C)(C)N(C)C)CC3)C(=O)N3CCCC(N3)C(=O)OCC(C)(C)C2)C1	active
CC(Nc1ccc2c(c1)OCCn1cc(N3C(=O)OCC3C(F)F)nc1-2)C(N)=O (centres undefined) + CCn1c(-c2cccnc2C(C)OC)c2c3cc(ccc31)N1CCOC(CC(NC(=O)C(C(C)C)N(C)C(=O)C3(F)CCN(C(=O)C#CC(C)(C)N(C)C)CC3)C(=O)N3CCCC(N3)C(=O)OCC(C)(C)C2)C1	active
O=C(c1ccc(F)c(F)c1Nc1ccc(I)cc1F)N1CC(O)([C@@H]2CCCCN2)C1 + CCn1c(-c2cccnc2C(C)OC)c2c3cc(ccc31)N1CCOC(CC(NC(=O)C(C(C)C)N(C)C(=O)C3(F)CCN(C(=O)C#CC(C)(C)N(C)C)CC3)C(=O)N3CCCC(N3)C(=O)OCC(C)(C)C2)C1	active

* * *

Reported values of viability, T/C for individual entries
- Test system: K86415-001-R-J1-PDC complex spheroids, viability
- assay-name: Anticancer human tumor K86415-001-R-J1-PDC cell line growth inhibition [RAS];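 further: spheroids exposed to agents for seven days before readout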
- test-context: second compound 0.0316 µM; first compound 0.1 µM; hits give low values

compound	viability, T/C [%]
C=CC(=O)N1CCN(c2nc(OCC3CCCN3C)nc3c(F)c(-c4nc(N)cc(C)c4C(F)(F)F)c(Cl)cc23)C(C)C1 (configuration not stated) + C#Cc1c(F)ccc2cc(O)cc(-c3ncc4c(N5CC6CCC(C5)N6)nc(OCC56CCCN5CC(F)C6)nc4c3F)c12	11.2
O=C(c1ccc(F)c(F)c1Nc1ccc(I)cc1F)N1CC(O)([C@@H]2CCCCN2)C1 + C#Cc1c(F)ccc2cc(O)cc(-c3ncc4c(N5CC6CCC(C5)N6)nc(OCC56CCCN5CC(F)C6)nc4c3F)c12	38
Cc1nc(N2CCC3(CC2)COC(C)C3N)c(CO)nc1Sc1ccnc(N)c1Cl (configuration not stated) + C#Cc1c(F)ccc2cc(O)cc(-c3ncc4c(N5CC6CCC(C5)N6)nc(OCC56CCCN5CC(F)C6)nc4c3F)c12	50.2
CCN1CCN(Cc2ccc(Nc3ncc(F)c(-c4cc(F)c5nc(C)n(C(C)C)c5c4)n3)nc2)CC1 + C=CC(=O)N1CCN(c2nc(OCC3CCCN3C)nc3c(F)c(-c4nc(N)cc(C)c4C(F)(F)F)c(Cl)cc23)C(C)C1	10.2
C=CC(=O)Nc1cc(Nc2nccc(-c3cn(C)c4ccccc34)n2)c(OC)cc1N(C)CCN(C)C + C#Cc1c(F)ccc2cc(O)cc(-c3ncc4c(N5CC6CCC(C5)N6)nc(OCC56CCCN5CC(F)C6)nc4c3F)c12	73.1
CC1(O)CCCC1n1c(=O)c(C(F)F)cc2cnc(NC3CCN(S(C)(=O)=O)CC3)nc21 (configuration not stated) + C#Cc1c(F)ccc2cc(O)cc(-c3ncc4c(N5CC6CCC(C5)N6)nc(OCC56CCCN5CC(F)C6)nc4c3F)c12	71.4
C[C@@H](NC(=O)c1ncnc(N)c1Cl)c1ncc(C(=O)Nc2cc(C(F)(F)F)c(Cl)cn2)s1 + C#Cc1c(F)ccc2cc(O)cc(-c3ncc4c(N5CC6CCC(C5)N6)nc(OCC56CCCN5CC(F)C6)nc4c3F)c12	115
